Quick reference for MIC among some compounds
tested on: E. faecium MMX 708 VSE; experiment: MIC broth microdilution; assay type: cell-based; conditions: Enterococcus faecium, MMX708VSE; E. faecium MMX 708 VSE; CAMHB; read-out: MIC
measurementType: MIC (µg/mL)

[[record]]
linenotation = "C=C(NC(=O)c1csc(C2=N[C@@H]3c4csc(n4)[C@H]4NC(=O)c5csc(n5)[C@H]([C@](C)(O)[C@@H](C)O)NC(=O)C5CSC(=N5)/C(=C/C)NC(=O)[C@H]([C@@H](C)O)NC(=O)c5csc(n5)[C@]3(CC2)NC(=O)[C@H](C)NC(=O)C(=C)NC(=O)[C@H](C)NC(=O)[C@H]([C@@H](C)CC)N[C@@H]2C=Cc3c([C@H](C)O)cc(nc3[C@H]2O)C(=O)O[C@@H]4C)n1)C(=O)NC(=CNC(=O)c1cccc(/C=N/OC)c1)C(N)=O"
unitstext = "µg/mL"
obsvalue = 0.25

[[record]]
linenotation = "C=C(NC(=O)c1csc(C2=N[C@@H]3c4csc(n4)[C@H]4NC(=O)c5csc(n5)[C@H]([C@](C)(O)[C@@H](C)O)NC(=O)C5CSC(=N5)/C(=C/C)NC(=O)[C@H]([C@@H](C)O)NC(=O)c5csc(n5)[C@]3(CC2)NC(=O)[C@H](C)NC(=O)C(=C)NC(=O)[C@H](C)NC(=O)[C@H]([C@@H](C)CC)N[C@@H]2C=Cc3c([C@H](C)O)cc(nc3[C@H]2O)C(=O)O[C@@H]4C)n1)C(=O)NC(=CNC(=O)COCCOC)C(N)=O"
unitstext = "µg/mL"
obsvalue = 1

[[record]]
linenotation = "C=C(NC(=O)c1csc(C2=N[C@@H]3c4csc(n4)[C@H]4NC(=O)c5csc(n5)[C@H]([C@](C)(O)[C@@H](C)O)NC(=O)C5CSC(=N5)/C(=C/C)NC(=O)[C@H]([C@@H](C)O)NC(=O)c5csc(n5)[C@]3(CC2)NC(=O)[C@H](C)NC(=O)C(=C)NC(=O)[C@H](C)NC(=O)[C@H]([C@@H](C)CC)N[C@@H]2C=Cc3c([C@H](C)O)cc(nc3[C@H]2O)C(=O)O[C@@H]4C)n1)C(=O)NC(=CNC(=O)c1cccc(/C=N/O)c1)C(N)=O"
unitstext = "µg/mL"
obsvalue = 0.5


* * *

assay: Aqueous solubility analysis in MOPS buffer; assay type: physicochemical; details: thermodynamic from solid; after 24 hours in 10 mM aqueous MOPS buffer, pH 7.2
measurementType: solubility at 24 h

[[record]]
compound = "C=C(NC(=O)c1csc(C2=N[C@@H]3c4csc(n4)[C@H]4NC(=O)c5csc(n5)[C@H]([C@](C)(O)[C@@H](C)O)NC(=O)C5CSC(=N5)/C(=C/C)NC(=O)[C@H]([C@@H](C)O)NC(=O)c5csc(n5)[C@]3(CC2)NC(=O)[C@H](C)NC(=O)C(=C)NC(=O)[C@H](C)NC(=O)[C@H]([C@@H](C)CC)N[C@@H]2C=Cc3c([C@H](C)O)cc(nc3[C@H]2O)C(=O)O[C@@H]4C)n1)C(=O)NC(=CNC(=O)c1ccccc1)C(N)=O [RJS-02]"
measurementtype = "solubility at 24 h"
obsvalue = "< 1 µg/mL"


* * *

tested on: E. faecalis ATCC 29212 VSE; assay: MIC broth microdilution; format: cell-based; conditions: Enterococcus faecalis, ATCC29212; E. faecalis ATCC 29212 VSE; CAMHB; read-out: MIC
Entries and their MIC values follow.
measurementType: MIC (µg/mL)

[[record]]
compound = "C=C(NC(=O)c1csc(C2=N[C@@H]3c4csc(n4)[C@H]4NC(=O)c5csc(n5)[C@H]([C@](C)(O)[C@@H](C)O)NC(=O)C5CSC(=N5)/C(=C/C)NC(=O)[C@H]([C@@H](C)O)NC(=O)c5csc(n5)[C@]3(CC2)NC(=O)[C@H](C)NC(=O)C(=C)NC(=O)[C@H](C)NC(=O)[C@H]([C@@H](C)CC)N[C@@H]2C=Cc3c([C@H](C)O)cc(nc3[C@H]2O)C(=O)O[C@@H]4C)n1)C(=O)NC(=CNC(=O)COCCOC)C(N)=O"
obsvalue = 1

[[record]]
compound = "C=C(NC(=O)c1csc(C2=N[C@@H]3c4csc(n4)[C@H]4NC(=O)c5csc(n5)[C@H]([C@](C)(O)[C@@H](C)O)NC(=O)C5CSC(=N5)/C(=C/C)NC(=O)[C@H]([C@@H](C)O)NC(=O)c5csc(n5)[C@]3(CC2)NC(=O)[C@H](C)NC(=O)C(=C)NC(=O)[C@H](C)NC(=O)[C@H]([C@@H](C)CC)N[C@@H]2C=Cc3c([C@H](C)O)cc(nc3[C@H]2O)C(=O)O[C@@H]4C)n1)C(=O)NC(=CNC(=O)c1cccc(/C=N/OC2O[C@H](CO)[C@@H](O)[C@H](O)[C@H]2O)c1)C(N)=O (some centres unmarked)"
obsvalue = 16


These measurements were taken from patent US20220315624A1.
